- System name: CYP3A4 (Homo sapiens, UniProt P08684)
- Construct: tissue BD-Gentest 452117; host or cells: human liver microsomes
- Sequence (P08684 whole entry): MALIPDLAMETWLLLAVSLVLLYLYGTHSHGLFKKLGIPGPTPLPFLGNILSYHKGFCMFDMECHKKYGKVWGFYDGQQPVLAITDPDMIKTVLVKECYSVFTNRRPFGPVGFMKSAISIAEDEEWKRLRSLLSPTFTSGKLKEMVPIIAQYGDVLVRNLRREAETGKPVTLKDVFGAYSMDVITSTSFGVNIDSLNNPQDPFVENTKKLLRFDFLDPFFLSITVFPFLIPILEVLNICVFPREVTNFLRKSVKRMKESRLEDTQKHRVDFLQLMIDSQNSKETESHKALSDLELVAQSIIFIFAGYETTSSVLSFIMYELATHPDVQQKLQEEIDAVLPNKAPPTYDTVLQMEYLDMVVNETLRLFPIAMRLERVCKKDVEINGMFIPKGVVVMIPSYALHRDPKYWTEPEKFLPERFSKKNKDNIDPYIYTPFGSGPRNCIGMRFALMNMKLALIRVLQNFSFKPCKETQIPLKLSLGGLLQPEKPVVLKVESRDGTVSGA
- Assay notes: CYP inhibition assay in human liver microsome, CYP3A4
- Type: in vitro ADME
- Details: percentage inhibition, substrate Midazolam 5 μM, <0: not or weak inhibitor
Value type: CYP (%) 3A4

Consider the reported CYP (%) 3A4 for these molecules:
1) C[C@@H]1CN(c2ccc(C#N)n3nccc23)C[C@H](CN2CC3(C2)OCc2cc(N4CC5(CN(C)C5)C4)ccc23)O1 [Example 8]	−8.5
2) [2H]c1ccc2c(N3C[C@H](CN4CC5(C4)OCc4cc(N6CC(C)(N)C6)ccc45)O[C@H](C)C3)ccc(C#N)c2n1 [Example 11]	12

I: C[C@@H]1CN(c2ccc(C#N)c3ncccc23)C[C@H](CN2CCN(c3ccncc3)CC2)O1 [ER-888286, reference compound]
II: [2H]c1ccc2c(N3C[C@H](CN4CC5(C4)OCc4cc(N6C[C@H]7NCCO[C@@H]7C6)ccc45)O[C@H](C)C3)ccc(C#N)c2n1 [Example 17]
III: [2H]c1ccc2c(N3C[C@H](CN4CC5(C4)OCc4cc(N6CC(N)C6)cnc45)O[C@H](C)C3)ccc(C#N)c2n1 [Example 20]
Q) Order the entries by their reported CYP (%) 3A4, beginning at the minimum. Reply with the item labels sorted in the order that was asked for.
A) I, II, III

###

- System name: hERG channel (Homo sapiens)
- Construct: expressed in transfected cells
- Sequence (Q12809 whole entry): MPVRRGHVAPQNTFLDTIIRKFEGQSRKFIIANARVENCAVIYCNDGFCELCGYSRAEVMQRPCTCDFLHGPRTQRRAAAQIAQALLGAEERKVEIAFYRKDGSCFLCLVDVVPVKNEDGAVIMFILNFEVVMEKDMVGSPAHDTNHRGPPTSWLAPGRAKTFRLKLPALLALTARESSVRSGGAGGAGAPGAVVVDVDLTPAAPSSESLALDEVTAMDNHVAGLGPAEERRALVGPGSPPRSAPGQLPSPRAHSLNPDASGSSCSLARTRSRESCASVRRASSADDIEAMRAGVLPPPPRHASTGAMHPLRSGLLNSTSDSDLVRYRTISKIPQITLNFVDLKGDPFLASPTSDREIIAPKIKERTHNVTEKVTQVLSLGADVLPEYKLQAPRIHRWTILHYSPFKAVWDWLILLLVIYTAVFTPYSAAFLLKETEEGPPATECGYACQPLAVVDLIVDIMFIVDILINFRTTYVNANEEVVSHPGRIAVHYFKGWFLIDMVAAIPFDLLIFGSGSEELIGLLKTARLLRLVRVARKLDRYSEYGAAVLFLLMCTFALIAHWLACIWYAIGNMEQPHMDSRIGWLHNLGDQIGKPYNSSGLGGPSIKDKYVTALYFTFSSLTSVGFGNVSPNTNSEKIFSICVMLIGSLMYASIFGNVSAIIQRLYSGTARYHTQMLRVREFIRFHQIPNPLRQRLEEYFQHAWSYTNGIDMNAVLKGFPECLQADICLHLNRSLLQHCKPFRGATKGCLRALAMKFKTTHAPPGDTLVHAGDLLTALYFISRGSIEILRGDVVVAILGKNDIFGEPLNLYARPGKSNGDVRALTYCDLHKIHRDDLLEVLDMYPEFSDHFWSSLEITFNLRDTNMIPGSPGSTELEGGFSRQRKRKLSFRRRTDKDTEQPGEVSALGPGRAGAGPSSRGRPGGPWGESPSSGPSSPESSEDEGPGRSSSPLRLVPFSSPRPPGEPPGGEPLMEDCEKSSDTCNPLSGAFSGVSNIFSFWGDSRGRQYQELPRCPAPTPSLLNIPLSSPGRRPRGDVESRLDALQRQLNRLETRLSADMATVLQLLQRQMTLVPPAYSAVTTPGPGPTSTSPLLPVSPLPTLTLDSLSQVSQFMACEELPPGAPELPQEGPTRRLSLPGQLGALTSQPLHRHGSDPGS
- Assay notes: hERG channel inhibition assay (patch-clamp, CHO hERG cells)
- Assay type: cell-based
- Details: human, CHO cells stably expressing hERG; CHO hERG cells, whole-cell patch-clamp
Value type: IC20 (µM)
The response must be a number in µM with no trailing unit.

1) [2H]c1ccc2c(N3C[C@H](CN4CC5(C4)OCc4cc(N6CC(C)(N)C6)ccc45)O[C@H](C)C3)ccc(C#N)c2n1 [Example 11]	6.2

Q) Fill in: IC20 of C[C@@H]1CN(c2ccc(C#N)n3ncc(F)c23)C[C@H](CN2CC3(C2)OCc2cc(N4CC5(CN(C)C5)C4)ccc23)O1 [Example 2] is ___
A) 9.9

###

- System name: human TLR8 (Homo sapiens, UniProt Q9NR97)
- Sequence (Q9NR97 27-1041): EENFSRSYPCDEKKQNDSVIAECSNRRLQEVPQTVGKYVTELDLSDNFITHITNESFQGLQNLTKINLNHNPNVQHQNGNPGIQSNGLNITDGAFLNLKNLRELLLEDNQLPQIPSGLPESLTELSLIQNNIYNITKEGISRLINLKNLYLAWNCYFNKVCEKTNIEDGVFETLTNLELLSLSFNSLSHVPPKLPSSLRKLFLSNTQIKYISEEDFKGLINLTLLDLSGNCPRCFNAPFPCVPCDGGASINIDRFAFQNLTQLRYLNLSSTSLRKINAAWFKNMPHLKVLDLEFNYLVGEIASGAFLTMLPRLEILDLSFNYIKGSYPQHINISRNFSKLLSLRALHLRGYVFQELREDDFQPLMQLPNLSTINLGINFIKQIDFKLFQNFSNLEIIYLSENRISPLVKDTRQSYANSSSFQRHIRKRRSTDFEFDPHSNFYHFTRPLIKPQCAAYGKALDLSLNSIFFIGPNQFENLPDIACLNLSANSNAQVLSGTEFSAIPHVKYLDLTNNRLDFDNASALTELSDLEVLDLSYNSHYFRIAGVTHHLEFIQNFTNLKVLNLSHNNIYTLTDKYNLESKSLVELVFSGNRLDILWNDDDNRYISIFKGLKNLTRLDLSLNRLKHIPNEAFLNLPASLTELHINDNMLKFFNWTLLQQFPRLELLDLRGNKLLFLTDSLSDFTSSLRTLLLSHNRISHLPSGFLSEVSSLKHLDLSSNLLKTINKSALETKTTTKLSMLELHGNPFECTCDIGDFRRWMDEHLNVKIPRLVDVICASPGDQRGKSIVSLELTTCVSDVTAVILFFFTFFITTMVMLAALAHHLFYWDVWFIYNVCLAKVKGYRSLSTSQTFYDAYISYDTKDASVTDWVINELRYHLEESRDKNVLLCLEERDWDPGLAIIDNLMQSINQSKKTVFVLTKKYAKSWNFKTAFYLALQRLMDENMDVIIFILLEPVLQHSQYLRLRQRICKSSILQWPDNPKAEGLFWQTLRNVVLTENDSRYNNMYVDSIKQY
- Assay notes: HEK293-Blue-hTLR-8 cells assay
- Details: HEK293-Blue-hTLR8 cells, R848 stimulation, 20 hrs, SEAP reporter; read-out: HEK/hTLR8 IC50
pIC50: −log10 of the molar value.
Value type: pIC50

Consider the reported pIC50 for these compounds:
1) C[C@@H]1CN(c2ccc(C#N)n3ncc(F)c23)C[C@H](CN2CC3(C2)OCc2cc(N4CC(C)(N)C4)ncc23)O1	7.23
2) C[C@@H]1CN(c2ccc(C#N)n3ncc(F)c23)C[C@H](CN2CC3(C2)OCc2cc(N4CC5(CN(C)C5)C4)cnc23)O1	7.19
3) [2H]c1ccc2c(N3C[C@H](CN4CC5(C4)OCc4cc(N6C[C@H]7NCCO[C@@H]7C6)ccc45)O[C@H](C)C3)ccc(C#N)c2n1	8.05
4) C[C@@H]1CN(c2ccc(C#N)n3nccc23)C[C@H](CN2CC3(C2)OCc2cc(N4CC(C)(N)C4)ncc23)O1	6.92

P: [2H]c1ccc2c(N3C[C@H](CN4CC5(C4)OCc4cc(N6C[C@H]7NCCO[C@@H]7C6)ncc45)O[C@H](C)C3)ccc(C#N)c2n1
Q: C[C@@H]1CN(c2ccc(C#N)n3ncc(F)c23)C[C@H](CN2CC3(C2)OCc2cc(N[C@H]4CNC[C@H]4F)ccc23)O1
R: C[C@@H]1CN(c2ccc(C#N)n3ncc(F)c23)C[C@H](CN2CC3(C2)OCc2cc(N4CC(C)(N)C4)ccc23)O1
Q) Order the entries by their reported pIC50, beginning at the minimum. Reply with the item labels sorted in the order that was asked for.
A) R, Q, P
(R: 7.09, Q: 7.29, P: 7.60)

P: C[C@@H]1CN(c2ccc(C#N)n3ncc(F)c23)C[C@H](CN2CC3(C2)OCc2cc(N4CC[C@](C)(N)C4)ccc23)O1
Q: C[C@@H]1CN(c2ccc(C#N)n3ncc(F)c23)C[C@H](CN2CC3(C2)OCc2cc(N4CC5(CNCCO5)C4)ccc23)O1
Q) Parameter check: reported pIC50 is higher for which label, P or Q ? Record your answer as the label of the chosen record.
A) P
(P: 7.66, Q: 7.46)
